- Test system: generalized trembling caused by an interperitoneal injection (200 mg/kg) of dl-5-hydroxytryptophane
- PROCEDURE_DETAILS: Test A: potentiation in mice of generalized trembling caused by dl-5-hydroxytryptophane
- Type: in vivo
- APPLIED_CONDITIONS: Mus musculus, po, dl-5-hydroxytryptophane 200 mg/kg intraperitoneal, read-out: Test A ED 50
// NB: equality with 7 mg/kg counts as 0; only ED50 strictly below is 1

Worked cases, answers included:
# MOLECULE, LABEL_CLASS
data = [
    ("O=C1OC(CO)CN1c1ccc(OCCC2CCCC2)cc1 (stereo not shown)", 1),
    ("CC(C)(C)COc1ccc(N2CC(CO)OC2=O)cc1 (stereo not shown)", 0),
    ("COCOc1ccc(N2CC(CO)OC2=O)cc1 (stereo not shown)", 0),
]

Q: Say whether its ED50 is strictly beneath 7 mg/kg. Entry: O=C1OC(CO)CN1c1ccc(OCCC2CCCCC2)cc1 (stereo not shown)
Ans: 0

Q: Here is the next molecule: C=CCCCOc1ccc(N2CC(CO)OC2=O)cc1 (stereo not shown)
Ans: 0

Q: Here is the next molecule: O=C1OC(CO)CN1c1ccc(OCC2CCC2)cc1 (stereo not shown)
Ans: 1

Q: Here is the next molecule: O=C1OC(CO)CN1c1ccc(OCc2ccncc2)cc1 (stereo not shown)
Ans: 0

Q: Here is the next molecule: N#Cc1ccccc1COc1ccc(N2CC(CO)OC2=O)cc1 (stereo not shown)
Ans: 0

Q: Here is the next molecule: CN(C)c1cccc(N2CC(CO)OC2=O)c1 (stereo not shown)
Ans: 0

Q: Here is the next molecule: CCCCCNc1ccc(N2CC(CO)OC2=O)cc1 (stereo not shown)
Ans: 0

Q: Here is the next molecule: CC1(COc2ccc(N3CC(CO)OC3=O)cc2)CCCC1 (stereo not shown)
Ans: 1

Q: Here is the next molecule: O=C1OC(CO)CN1c1ccc(COc2cccc([N+](=O)[O-])c2)cc1 (stereo not shown)
Ans: 1

Q: Here is the next molecule: O=C1OC(CO)CN1c1ccc(OCc2cccnc2)cc1 (stereo not shown)
Ans: 0
